# TEST SYSTEM: OAT1 (Homo sapiens)
# Sequence (Q4U2R8 whole entry): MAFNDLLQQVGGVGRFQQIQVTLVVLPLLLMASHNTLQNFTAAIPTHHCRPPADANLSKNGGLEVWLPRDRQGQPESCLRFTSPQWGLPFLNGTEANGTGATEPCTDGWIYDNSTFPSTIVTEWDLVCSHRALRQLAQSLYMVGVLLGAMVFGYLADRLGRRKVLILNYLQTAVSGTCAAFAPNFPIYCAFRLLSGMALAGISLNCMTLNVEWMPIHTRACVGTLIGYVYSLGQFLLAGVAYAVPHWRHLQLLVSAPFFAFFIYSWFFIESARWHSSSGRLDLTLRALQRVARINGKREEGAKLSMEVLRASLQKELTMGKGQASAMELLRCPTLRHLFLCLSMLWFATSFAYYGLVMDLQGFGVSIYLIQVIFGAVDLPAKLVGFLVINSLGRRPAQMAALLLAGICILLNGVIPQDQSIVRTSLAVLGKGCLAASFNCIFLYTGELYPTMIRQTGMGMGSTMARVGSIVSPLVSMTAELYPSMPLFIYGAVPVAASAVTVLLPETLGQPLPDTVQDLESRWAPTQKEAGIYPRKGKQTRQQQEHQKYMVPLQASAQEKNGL
# EXPERIMENT NOTES: Transporter inhibition in overexpressing cell lines
# Type: in vitro ADME
# CONDITION SET: SLC family, n = 2, read-out: Drug transport inhibition OAT1
MEASURED ATTRIBUTE: inhibition at 10 µM (%)

>>> observed_value("CN(CCC(=O)NCc1cccc(Cl)c1)Cc1ccccc1")
-23.1
>>> observed_value("CN(CCC(=O)NCc1ccc(C#N)cc1)Cc1ccccc1")
-25.8

* * *

# EXPERIMENT NOTES: Microsomal stability
# Format: in vitro ADME
# CONDITION SET: human, liver microsomes, read-out: Human liver microsome clearance
MEASURED ATTRIBUTE: microsomal CLint at 10 µM

>>> observed_value("CN(CCC(=O)NCc1ccc(C#N)cc1)Cc1ccccc1")
"< 115 µL/min/mg"
